# tgt: UniProt O13889
# Sequence (O13889 whole entry): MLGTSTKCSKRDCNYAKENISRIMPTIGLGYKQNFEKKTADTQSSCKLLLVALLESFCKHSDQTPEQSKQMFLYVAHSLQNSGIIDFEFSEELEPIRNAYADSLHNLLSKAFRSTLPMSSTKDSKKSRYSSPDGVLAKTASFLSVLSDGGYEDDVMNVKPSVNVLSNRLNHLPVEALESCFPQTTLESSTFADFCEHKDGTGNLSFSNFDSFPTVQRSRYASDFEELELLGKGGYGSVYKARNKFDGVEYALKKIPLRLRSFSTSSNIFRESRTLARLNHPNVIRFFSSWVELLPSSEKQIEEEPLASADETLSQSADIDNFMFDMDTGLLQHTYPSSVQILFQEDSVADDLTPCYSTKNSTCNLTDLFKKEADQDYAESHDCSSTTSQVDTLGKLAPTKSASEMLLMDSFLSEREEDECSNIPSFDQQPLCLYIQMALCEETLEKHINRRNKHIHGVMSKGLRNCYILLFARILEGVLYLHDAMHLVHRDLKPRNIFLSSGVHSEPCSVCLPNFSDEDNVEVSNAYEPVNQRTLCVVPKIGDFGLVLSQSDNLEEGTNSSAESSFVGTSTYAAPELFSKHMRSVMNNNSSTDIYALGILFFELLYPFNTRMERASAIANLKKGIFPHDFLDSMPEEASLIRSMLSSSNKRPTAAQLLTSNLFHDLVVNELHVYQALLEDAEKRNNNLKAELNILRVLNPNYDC
parameter-measured: Kd (nM)
Could you give me the number in nM? Just the number is fine.

What value of Kd has been reported for the following compound? C=CC1=C(C)C2=Cc3c(C=C)c(C)c4[n]3[Fe]([Cl])[n]3c(c(C)c(CCC(=O)O)c3=CC3=NC(=C4)C(C)=C3CCC(=O)O)=CC1=N2 [hemin]
110
